The measured values listed here are drawn from patent US20220112288A1.

target: T1, Recombinant human CD4 (R&D Systems, Cat. 10327-CD) (human, UniProt P01730 26-390, limits assumed); assay: BLI (Octet Red384), purified antibody on anti-mouse Fc sensors, human CD4 100/50/25 nM, global 1:1 fit;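 also: antibodies loaded at 10 µg/mL, curves fitted across association and dissociation phases, with an unrelated mouse-derived antibody serving as internal reference control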
T1 construct: Bought protein; also called huCD4
experimentalEndpoint: Kd

Reference set (2 entries):
Give the value of Kd reported for the following: 75110_12H17A (antibody, V domains shown, Tested as antibody purified from AlivaMab Mouse Kappa hybridoma (human V regions, kappa light chain, mouse Fc captured by anti-mouse Fc sensors)) VH: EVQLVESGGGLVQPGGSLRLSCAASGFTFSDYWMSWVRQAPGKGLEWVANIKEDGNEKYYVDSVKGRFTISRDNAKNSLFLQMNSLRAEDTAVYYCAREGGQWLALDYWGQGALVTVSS VL: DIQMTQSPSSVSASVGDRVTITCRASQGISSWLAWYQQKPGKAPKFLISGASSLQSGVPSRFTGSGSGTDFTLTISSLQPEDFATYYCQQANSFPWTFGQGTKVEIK
26 nM

Give the value of Kd reported for the following: 75110_08H06A (antibody, V domains shown, Tested as antibody purified from AlivaMab Mouse Kappa hybridoma (human V regions, kappa light chain, mouse Fc captured by anti-mouse Fc sensors)) VH: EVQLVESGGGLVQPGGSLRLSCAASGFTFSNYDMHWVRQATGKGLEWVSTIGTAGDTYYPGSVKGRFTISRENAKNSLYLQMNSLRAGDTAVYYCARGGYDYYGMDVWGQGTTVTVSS VL: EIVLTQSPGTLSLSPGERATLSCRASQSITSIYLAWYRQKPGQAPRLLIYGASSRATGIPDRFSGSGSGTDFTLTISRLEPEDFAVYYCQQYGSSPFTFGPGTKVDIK
11 nM

Let us examine a further case.
Give the value of Kd reported for the following: 75110_08D24A (antibody, V domains shown, Tested as antibody purified from AlivaMab Mouse Kappa hybridoma (human V regions, kappa light chain, mouse Fc captured by anti-mouse Fc sensors)) VH: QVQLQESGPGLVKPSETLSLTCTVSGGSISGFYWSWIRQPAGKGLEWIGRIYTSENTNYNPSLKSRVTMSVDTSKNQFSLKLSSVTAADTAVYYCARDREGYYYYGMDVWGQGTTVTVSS VL: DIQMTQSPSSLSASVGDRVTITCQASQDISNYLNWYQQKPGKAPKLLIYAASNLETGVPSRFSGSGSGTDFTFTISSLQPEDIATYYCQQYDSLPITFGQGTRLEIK
22 nM
